// data source = ChEMBL document CHEMBL3885861

organism: Rattus norvegicus; test: Open TG-GATES - Regimen: Daily Repeat; format: toxicity, organism-based, Sprague-Dawley; design: regimen Daily Repeat, gender Male, age 6 weeks; settings: in vivo, po, 100 mg/kg, 72 h, tissue Blood, route gavage, dose level Low, time 3 day
observed property: RBC (x10_4/ul)
Your answer is read as x10_4/ul, so omit the unit and give the number.

The following compounds have reported results that may help.
[[record]]
compound = "COC1=CC(=O)C[C@@H](C)[C@]12Oc1c(Cl)c(OC)cc(OC)c1C2=O"
assay_result = 599.4

[[record]]
compound = "COc1ccc2[nH]c([S+]([O-])Cc3ncc(C)c(OC)c3C)nc2c1 (stereo not given)"
assay_result = 624

[[record]]
compound = "CCOC(=O)CCC(=O)O[C@H]1[C@H](O[C@@H]2[C@@H](C)[C@H](O[C@H]3C[C@@](C)(OC)[C@@H](O)[C@H](C)O3)[C@@H](C)C(=O)O[C@H](CC)[C@@](C)(O)[C@H](O)[C@@H](C)C(=O)[C@H](C)C[C@@]2(C)O)O[C@H](C)C[C@@H]1N(C)C [ERYTHROMYCIN ETHYLSUCCINATE]"
assay_result = 645.4

[[record]]
compound = "NC(N)=Nc1nc(CSCCC(N)=NS(N)(=O)=O)cs1"
assay_result = 600.6


Next compound, please.
Input line: So what's the measured RBC for this one? CCOc1ccc(NC(=O)CC(C)O)cc1 (stereo not given)
Output line: 650.6

###

Each entry below carries its recorded KIDNEY_TOTAL.
organism: Rattus norvegicus; test: Open TG-GATES - Regimen: Single; assay type: toxicity, organism-based, Sprague-Dawley; design: regimen Single, gender Male, age 6 weeks; conditions: in vivo, po, 300 mg/kg, 24 h, tissue Kidney, route gavage, dose level Middle
Entry rule: numbers only, all in g.

[[record]]
compound = "COC1=CC(=O)C[C@@H](C)[C@]12Oc1c(Cl)c(OC)cc(OC)c1C2=O [GRISEOFULVIN]"
endpoint_unit = "g"
assay_result = 1.9

[[record]]
compound = "NC(N)=Nc1nc(CSCCC(N)=NS(N)(=O)=O)cs1 [FAMOTIDINE]"
endpoint_unit = "g"
assay_result = 2

[[record]]
compound = "COc1ccc2[nH]c([S+]([O-])Cc3ncc(C)c(OC)c3C)nc2c1 (centres undefined) [OMEPRAZOLE]"
endpoint_unit = "g"
assay_result = 2


Alright, here's another compound for you.
Input line: # KIDNEY_TOTAL lookup, item CCOC(=O)CCC(=O)O[C@H]1[C@H](O[C@@H]2[C@@H](C)[C@H](O[C@H]3C[C@@](C)(OC)[C@@H](O)[C@H](C)O3)[C@@H](C)C(=O)O[C@H](CC)[C@@](C)(O)[C@H](O)[C@@H](C)C(=O)[C@H](C)C[C@@]2(C)O)O[C@H](C)C[C@@H]1N(C)C [ERYTHROMYCIN ETHYLSUCCINATE]
Output line: 2

###

species on record: Rattus norvegicus; assay: Open TG-GATES - Regimen: Daily Repeat; assay type: toxicity, organism-based, Sprague-Dawley; design: regimen Daily Repeat, gender Male, age 6 weeks; settings: in vivo, po, 10 mg/kg, […], tissue Plasma, route gavage, dose level Low, time 28 day
Item-by-item account of gamma-GTP
Write the number in IU/L without appending the unit.

[[record]]
molecule = "CC1=C(/C=C/C(C)=C/C=C/C(C)=C/CO)C(C)(C)CCC1"
assay_result = 1.4

[[record]]
molecule = "CC(C)OC(=O)C(C)(C)Oc1ccc(C(=O)c2ccc(Cl)cc2)cc1 [FENOFIBRATE]"
assay_result = 1

[[record]]
molecule = "CN(C)CCCN1c2ccccc2CCc2ccccc21"
assay_result = 1


Here is another molecule to look at.
Input line: Consider the molecule CN(C)CCN(Cc1cccs1)c1ccccn1 and give its measured gamma-GTP.
Output line: 1.4

###

species on record: Rattus norvegicus; assay: Open TG-GATES - Regimen: Daily Repeat; format: toxicity, organism-based, Sprague-Dawley; set-up: regimen Daily Repeat, gender Male, age 6 weeks; details: in vivo, po, 0 mg/kg, […], tissue Plasma, route gavage, dose level Control, time 28 day
// label = 1 if TBIL is not less than 0.1 mg/dL, otherwise -1

[[record]]
molecule = "CCOC(=O)CCC(=O)O[C@H]1[C@H](O[C@@H]2[C@@H](C)[C@H](O[C@H]3C[C@@](C)(OC)[C@@H](O)[C@H](C)O3)[C@@H](C)C(=O)O[C@H](CC)[C@@](C)(O)[C@H](O)[C@@H](C)C(=O)[C@H](C)C[C@@]2(C)O)O[C@H](C)C[C@@H]1N(C)C [ERYTHROMYCIN ETHYLSUCCINATE]"
category_label = -1


Input line: Tell me whether TBIL is at least 0.1 mg/dL here: CC1=C(/C=C/C(C)=C/C=C/C(C)=C/CO)C(C)(C)CCC1
Output line: -1

Input line: Would you say CC(C)OC(=O)C(C)(C)Oc1ccc(C(=O)c2ccc(Cl)cc2)cc1 [FENOFIBRATE] shows TBIL at minimum 0.1 mg/dL?
Output line: -1

Input line: Say whether CCOc1ccc(NC(=O)CC(C)O)cc1 (stereo not drawn) shows TBIL of 0.1 mg/dL or more.
Output line: -1

Input line: Tell me whether TBIL is at least 0.1 mg/dL here: COC1=CC(=O)C[C@@H](C)[C@]12Oc1c(Cl)c(OC)cc(OC)c1C2=O
Output line: 1

Input line: Determine whether this molecule has TBIL no lower than 0.1 mg/dL: NNC(=O)c1ccncc1
Output line: 1

Input line: Hi, just wondering whether CN(C)CCN(Cc1cccs1)c1ccccn1 shows TBIL of 0.1 mg/dL or higher.
Output line: -1

###

Plat for assorted molecules
species on record: Rattus norvegicus; experiment: Open TG-GATES - Regimen: Daily Repeat; assay type: toxicity, organism-based, Sprague-Dawley; parameters: regimen Daily Repeat, gender Male, age 6 weeks; settings: in vivo, po, 1000 mg/kg, 72 h, tissue Blood, route gavage, dose level High, time 3 day

Use these answered entries as a reference point.
[[record]]
molecule = "COc1ccc2[nH]c([S+]([O-])Cc3ncc(C)c(OC)c3C)nc2c1 (stereo unspecified)"
assay_result = "132.7 x10_4/uL"

[[record]]
molecule = "CCOC(=O)CCC(=O)O[C@H]1[C@H](O[C@@H]2[C@@H](C)[C@H](O[C@H]3C[C@@](C)(OC)[C@@H](O)[C@H](C)O3)[C@@H](C)C(=O)O[C@H](CC)[C@@](C)(O)[C@H](O)[C@@H](C)C(=O)[C@H](C)C[C@@]2(C)O)O[C@H](C)C[C@@H]1N(C)C [ERYTHROMYCIN ETHYLSUCCINATE]"
assay_result = "125 x10_4/uL"


// next entry
Input line: Fill blank: measured Plat of the molecule CC(C)OC(=O)C(C)(C)Oc1ccc(C(=O)c2ccc(Cl)cc2)cc1 [FENOFIBRATE] is ____.
Output line: 105.8 x10_4/uL

###

species on record: Rattus norvegicus; experiment: Open TG-GATES - Regimen: Single; assay type: toxicity, organism-based, Sprague-Dawley; parameters: regimen Single, gender Male, age 6 weeks; conditions: in vivo, po, 100 mg/kg, 6 h, tissue Plasma, route gavage, dose level Low
observed property: TBIL (mg/dL)
Lab book: enter the figure in mg/dL, no units written.

[[record]]
molecule = "COc1ccc2[nH]c([S+]([O-])Cc3ncc(C)c(OC)c3C)nc2c1 (centres undefined)"
observed_property = "TBIL"
assay_result = 0.1


Input line: What value of TBIL has been recorded for this entry: COC1=CC(=O)C[C@@H](C)[C@]12Oc1c(Cl)c(OC)cc(OC)c1C2=O
Output line: 0.2

Input line: Value lookup for TBIL; key = NC(N)=Nc1nc(CSCCC(N)=NS(N)(=O)=O)cs1
Output line: 0.1

Input line: Need TBIL of CCOC(=O)CCC(=O)O[C@H]1[C@H](O[C@@H]2[C@@H](C)[C@H](O[C@H]3C[C@@](C)(OC)[C@@H](O)[C@H](C)O3)[C@@H](C)C(=O)O[C@H](CC)[C@@](C)(O)[C@H](O)[C@@H](C)C(=O)[C@H](C)C[C@@]2(C)O)O[C@H](C)C[C@@H]1N(C)C [ERYTHROMYCIN ETHYLSUCCINATE] , thanks.
Output line: 0.02

###

# reported GLC; entries follow
organism: Rattus norvegicus; test: Open TG-GATES - Regimen: Single; type: toxicity, organism-based, Sprague-Dawley; parameters: regimen Single, gender Male, age 6 weeks; conditions: in vivo, po, 100 mg/kg, 9 h, tissue Plasma, route gavage, dose level High
Express the result in mg/dL but write the number alone.

[[record]]
item_smiles = "CC1=C(/C=C/C(C)=C/C=C/C(C)=C/CO)C(C)(C)CCC1"
endpoint_unit = "mg/dL"
assay_result = 179.6


Input line: Recorded GLC of CN(C)CCN(Cc1cccs1)c1ccccn1 , please.
Output line: 172.8

Input line: Value lookup for GLC; key = CN(C)CCCN1c2ccccc2CCc2ccccc21
Output line: 179.2

Input line: Which GLC is listed for CN(C)CCCN1c2ccccc2CCc2ccc(Cl)cc21 ?
Output line: 194.6
